# Test system: U2OS
# Assay: Multiplex assay against U2OS
# Assay type: toxicity, cell-based
# Study Conditions: human, 24 h, 10 µM, compound concentration 10 uM, replicate 1
Measured Metric: Population Hoechst High Intensity Objects (%)
Provide only the numeric value, understood in %.

CCOc1ccn(-c2ccc(F)cc2)c(=O)c1C(=O)Nc1ccc(Oc2ccnc(N)c2Cl)c(F)c1 [BMS-777607]	1
CCOC(=O)CCNc1cc(N2CCc3ccccc3CC2)nc(-c2ccccn2)n1	5
CC[C@@]1(O)C(=O)OCc2c1cc1n(c2=O)Cc2cc3ccccc3nc2-1 [CAMPTOTHECIN]	5

Pending molecule:
*Q* # query: Population Hoechst High Intensity Objects (%) | item CN1C(=O)[C@@H](NC(=O)c2cc3ccccc3[nH]2)N=C(c2ccccc2)c2ccccc21 [DEVAZEPIDE] | system: U2OS
*A* 6

These entries and their values trace back to ChEMBL document CHEMBL4689842.
